Target: Ubiquitin carboxyl-terminal hydrolase 28 (Homo sapiens) (UniProt Q96RU2)
Sequence (Q96RU2 whole entry, looked up): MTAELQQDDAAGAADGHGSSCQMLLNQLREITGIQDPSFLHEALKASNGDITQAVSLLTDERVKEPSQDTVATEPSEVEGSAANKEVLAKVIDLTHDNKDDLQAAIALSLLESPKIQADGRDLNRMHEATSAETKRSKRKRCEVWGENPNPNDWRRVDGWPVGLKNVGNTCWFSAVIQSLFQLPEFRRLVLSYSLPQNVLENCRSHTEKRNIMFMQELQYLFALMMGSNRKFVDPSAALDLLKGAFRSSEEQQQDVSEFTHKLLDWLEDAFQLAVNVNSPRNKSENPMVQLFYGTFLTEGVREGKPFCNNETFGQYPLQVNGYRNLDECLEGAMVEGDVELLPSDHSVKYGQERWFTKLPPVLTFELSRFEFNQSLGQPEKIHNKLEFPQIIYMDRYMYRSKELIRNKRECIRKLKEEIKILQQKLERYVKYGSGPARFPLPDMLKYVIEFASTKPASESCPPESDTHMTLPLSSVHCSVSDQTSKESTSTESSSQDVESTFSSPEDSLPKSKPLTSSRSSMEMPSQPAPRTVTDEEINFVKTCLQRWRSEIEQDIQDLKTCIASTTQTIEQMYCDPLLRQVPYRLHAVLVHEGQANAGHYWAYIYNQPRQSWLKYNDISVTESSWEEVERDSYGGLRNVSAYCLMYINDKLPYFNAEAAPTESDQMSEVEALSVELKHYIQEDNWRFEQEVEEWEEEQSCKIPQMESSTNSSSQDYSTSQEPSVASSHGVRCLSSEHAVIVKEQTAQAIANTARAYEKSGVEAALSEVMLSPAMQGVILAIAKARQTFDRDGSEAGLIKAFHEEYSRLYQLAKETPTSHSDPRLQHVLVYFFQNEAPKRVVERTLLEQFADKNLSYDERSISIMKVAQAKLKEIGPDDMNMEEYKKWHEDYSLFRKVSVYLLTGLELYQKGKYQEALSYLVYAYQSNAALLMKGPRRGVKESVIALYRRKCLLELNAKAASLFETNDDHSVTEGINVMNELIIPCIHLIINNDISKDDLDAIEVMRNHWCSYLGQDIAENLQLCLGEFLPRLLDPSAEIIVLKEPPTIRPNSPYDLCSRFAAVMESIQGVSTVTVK
Assay: inhibitors of human USP28 deubiquitinase (AID 1645857)
Conditions: purified USP28, Ub-rhodamine cleavage fluorescence, 30 min; at 25 µM; stronger effect = higher value
Hit rate of the full screen: of about 47,000 compounds, about 1,400 (3%) were called active. This is one part of a sample in which actives are shown more often than they occur.

entry smiles	tested target	units	inhibition
COc1cc(O)sc1C=Nc1ccc(Oc2ccccc2)cc1	Ubiquitin carboxyl-terminal hydrolase 28 (Homo sapiens) (UniProt Q96RU2)	%	40.7
O[C@@H]1C[C@H]2CN(Cc3ccc(F)cc3)[C@H](Cc3ccccc3)CN2C1	Ubiquitin carboxyl-terminal hydrolase 28 (Homo sapiens) (UniProt Q96RU2)	%	2.96
COc1cc(-c2nnc(SCC(=O)Nc3ccc(Br)cc3)n2CCc2ccccc2)cc(OC)c1OC	Ubiquitin carboxyl-terminal hydrolase 28 (Homo sapiens) (UniProt Q96RU2)	%	-5.36
Clc1ccc(C[n+]2cc(-c3ccc(Cl)cc3)n3c2CCC3)cc1	Ubiquitin carboxyl-terminal hydrolase 28 (Homo sapiens) (UniProt Q96RU2)	%	54.6

----------
Molecular target: Ubiquitin carboxyl-terminal hydrolase 28 (Homo sapiens)
Assay: inhibitors of human USP28 deubiquitinase (AID 1645857)
Details: purified USP28, Ub-rhodamine cleavage fluorescence, 30 min; at 25 µM
Hit rate of the full screen: of about 47,000 compounds, about 1,400 (3%) were called active. Rule as the data show it: active = inhibition above about 30%; inactive = the rest. What follows is part of a selection rich in actives, with near analogues and random picks from the rest.
Possible outcomes: YES = active, NO = inactive

compound	tested target	class name
CC1(C)CC(=O)C2=C(C1)Nc1ccccc1NC2c1ccccc1O (configuration not stated)	Ubiquitin carboxyl-terminal hydrolase 28 (Homo sapiens)	NO
O=C(COc1ccc2ccccc2c1)NCc1nnnn1-c1ccc(Cl)cc1	Ubiquitin carboxyl-terminal hydrolase 28 (Homo sapiens)	YES
CCC(Oc1ccccc1)C(=O)NCc1ccc2c(c1)OCO2 (configuration not stated)	Ubiquitin carboxyl-terminal hydrolase 28 (Homo sapiens)	NO
Cc1ccc(NC(=O)NCc2nnnn2-c2ccccc2)cc1C	Ubiquitin carboxyl-terminal hydrolase 28 (Homo sapiens)	NO
Cc1nc(SCC#N)c2oc3ccccc3c2n1	Ubiquitin carboxyl-terminal hydrolase 28 (Homo sapiens)	NO
c1cc(CNCc2ccc3c(c2)OCO3)ccn1	Ubiquitin carboxyl-terminal hydrolase 28 (Homo sapiens)	NO
NC(=O)c1c(NC(=O)/C=C/C(=O)O)sc2c1CCCCCC2	Ubiquitin carboxyl-terminal hydrolase 28 (Homo sapiens)	NO

----------
Biological target: Ubiquitin carboxyl-terminal hydrolase 28 (Homo sapiens) (UniProt Q96RU2)
Test: inhibitors of human USP28 deubiquitinase (AID 1645857)
Details: purified USP28, Ub-rhodamine cleavage fluorescence, 30 min; at 25 µM; stronger effect = higher value
The whole screen tested about 47,000 compounds, of which about 1,400 (3%) were called active. The sample holds actives, similar compounds and a random draw of the others, so the mix is not that of the screen.
measured parameter: inhibition (%)

entry smiles	tested target	measured parameter	reported measurement
O=C(Cc1nnc2c(-c3nc(C4CC4)no3)cccn12)Nc1ccccc1	Ubiquitin carboxyl-terminal hydrolase 28 (Homo sapiens) (UniProt Q96RU2)	inhibition	11
CCCOc1ccc(NC(=O)c2ccc(Br)cc2)c2cccnc12	Ubiquitin carboxyl-terminal hydrolase 28 (Homo sapiens) (UniProt Q96RU2)	inhibition	-10.2
O=S(=O)(Nc1ccc(Cc2ccncc2)cc1)c1ccc2c(c1)OCCO2	Ubiquitin carboxyl-terminal hydrolase 28 (Homo sapiens) (UniProt Q96RU2)	inhibition	9.83
CCOC(=O)c1ccc(NC(=O)CSc2nnc(CNC(=O)c3ccc(OC)cc3)n2C)cc1	Ubiquitin carboxyl-terminal hydrolase 28 (Homo sapiens) (UniProt Q96RU2)	inhibition	-5.59
Cc1nn(-c2ccccc2)c(C)c1S(=O)(=O)N1CCN(c2ccccn2)CC1	Ubiquitin carboxyl-terminal hydrolase 28 (Homo sapiens) (UniProt Q96RU2)	inhibition	-7.5
